- TARGET_UNDER_TEST: menin/MLL (terbium chelate-labeled menin, FITC-MBM1 peptide) (Homo sapiens, UniProt O00255, T541A)
- Construct: Menin (a.a 1-610-6xhis tag)
- Sequence (O00255 with tags, fused parts or gaps T541A): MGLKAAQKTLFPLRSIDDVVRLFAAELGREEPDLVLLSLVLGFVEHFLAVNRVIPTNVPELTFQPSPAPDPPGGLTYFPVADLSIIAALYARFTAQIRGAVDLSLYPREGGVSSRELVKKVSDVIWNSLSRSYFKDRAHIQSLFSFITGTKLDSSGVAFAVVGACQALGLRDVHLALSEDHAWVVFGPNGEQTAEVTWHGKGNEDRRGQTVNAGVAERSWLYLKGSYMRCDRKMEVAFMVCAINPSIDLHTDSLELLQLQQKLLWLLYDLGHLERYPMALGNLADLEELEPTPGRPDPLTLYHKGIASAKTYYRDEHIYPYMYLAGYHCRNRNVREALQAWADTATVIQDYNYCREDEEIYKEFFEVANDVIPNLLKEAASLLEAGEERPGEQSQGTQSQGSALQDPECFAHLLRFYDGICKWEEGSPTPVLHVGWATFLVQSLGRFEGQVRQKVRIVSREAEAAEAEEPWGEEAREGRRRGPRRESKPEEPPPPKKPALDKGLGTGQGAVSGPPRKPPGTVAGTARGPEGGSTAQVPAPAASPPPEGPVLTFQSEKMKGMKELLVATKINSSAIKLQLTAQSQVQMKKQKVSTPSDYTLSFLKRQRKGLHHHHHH
- METHOD: Menin/MLL homogenous time-resolved fluorescence (HTRF) assay
- TEST_CONTEXT: 30 min incubation
- Description: 1) Menin/MLL Homogenous Time-Resolved Fluorescence (HTRF) Assay […] Compound potencies were determined by first calculating % inhibition at each compound concentration according to equation 1: […] Where LC and HC are the HTRF values of the assay in the presence or absence of a saturating concentration of a compound that competes with FITC-MBM1 for binding to menin, and HTRF^compound is the measured HTRF value in the presence of the test compound. […]
For each record, write down the corresponding pIC50.
Worth noting: pIC50 values are minus log10 of concentrations stated in mol/L.

input: pIC50 lookup needed for CC(C)[C@H]([C@H]1C[C@@H](N2CC3(COC3)C2)C1)N1CC2(CCN(c3ncnnc3Oc3ccc(F)cc3-c3ncc(C#N)cc3C3CC3)C2)C1 (single isomer, unassigned) , thanks.
output: 10.00

input: pIC50 lookup needed for CC(C)[C@H]([C@H]1C[C@@H](N2CC3(CCO3)C2)C1)N1CC2(CCN(c3ncnnc3Oc3ccc(F)cc3-c3cncnc3C3CC3)C2)C1 (single isomer, unassigned) , thanks.
output: 9.70

input: pIC50 lookup needed for CC(C)[C@@H]([C@H]1C[C@@H](NC2CC2)C1)N1CC2(CCN(c3ncnnc3Oc3ccc(F)cc3-c3nnccc3C3CC3)C2)C1 (single isomer, unassigned) , thanks.
output: 10.00

input: pIC50 lookup needed for CC(=O)Nc1cc(N[C@H]2C[C@@H](C(C(C)C)N3CC4(CCN(c5ncnnc5Oc5ccc(F)cc5-c5cncnc5C5CC5)C4)C3)C2)cnn1 (single isomer, unassigned) , thanks.
output: 10.00

input: pIC50 lookup needed for CC(C)[C@H]([C@H]1C[C@@H](N2CC[C@@](C)(O)C2)C1)N1CC2(CCN(c3ncnnc3Oc3ccc(F)cc3-c3cncnc3C3CC3)C2)C1 (single isomer, unassigned) , thanks.
output: 9.70

###

- Tested on: KO-52 cells
- METHOD: Proliferation assay, spheroid-like growth, KO-52 (MLL wildtype control cell line)
- Format: cell-based, human
- TEST_CONTEXT: Homo sapiens, 192 h, KO-52 control cells, 8 days, confluence as measure of spheroid size; read-out: spheroid assay_OneTime KO-52 IC50
pIC50: −log10 of the molar value.
Outcome: Criterion met for pIC50 of at least 6; Criterion not met for anything lower.

input: Could you tell me if the measured pIC50 of CC(=O)N1CC2CN([C@H]3C[C@@H]([C@H](C(C)C)N4CC5(CCN(c6ncnnc6Oc6ccc(F)cc6-c6cnc(C)nc6C6CC6)C5)C4)C3)CC2C1 (some centres unmarked) [Compound 377] reaches 6 or more?
output: Criterion not met

input: Could you tell me if the measured pIC50 of CC(C)C([C@H]1C[C@@H](N2C[C@H]3COC[C@H]3C2)C1)N1CC2(CCN(c3ncnnc3Oc3ccc(F)cc3-c3cnccc3C3CC3)C2)C1 (some centres unmarked) [Compound 138] reaches 6 or more?
output: Criterion met

input: Could you tell me if the measured pIC50 of CC(C)[C@H]([C@H]1C[C@@H](N2C[C@H]3COC[C@H]3C2)C1)N1CC2(CCN(c3ncnnc3Oc3ccc(F)cc3-c3ncccc3C3CC3)C2)C1 (single isomer, unassigned) [Compound 149] reaches 6 or more?
output: Criterion met

input: Could you tell me if the measured pIC50 of CC(C)[C@H]([C@H]1C[C@@H](Nc2ncc(C(=O)N(C)C)o2)C1)N1CC2(CCN(c3ncnnc3Oc3ccc(F)cc3-c3cncnc3C3CC3)C2)C1 (single isomer, unassigned) [Compound 435] reaches 6 or more?
output: Criterion not met

input: Could you tell me if the measured pIC50 of CC(C)[C@@H]([C@H]1C[C@@H](N2C[C@H]3COC[C@H]3C2)C1)N1CC2(CCN(c3ncnnc3Oc3ccc(F)cc3-c3nnccc3C3CC3)C2)C1 (single isomer, unassigned) [Compound 258] reaches 6 or more?
output: Criterion met

Values from patent US20240417405A1
